Cited source: ChEMBL document CHEMBL3992485

Give pIC50 for every item shown.
test system: A549; assay: Antiproliferative activity against human A549 cells measured after 24 hrs by MTT assay; assay type: functional, cell-based; details: A549, 24 h
Give bare numbers, as −log10 of the molar value.

As a guide, the following entries are already answered.
Cc1ccc(S(=O)(=O)N2CCN(C(=O)c3cn(Cc4ccccc4)c4ccccc34)CC2)cc1    4.77
Cn1cc(C(=O)N2CCN(S(=O)(=O)c3ccc([N+](=O)[O-])cc3)CC2)c2ccccc21    4.35
CCCn1cc(C(=O)N2CCN(S(=O)(=O)c3ccc(C)cc3)CC2)c2ccccc21    4.83
O=C(c1cn(Cc2ccccc2)c2ccccc12)N1CCN(S(=O)(=O)c2ccccc2)CC1    4.65

Requested field: pIC50. Item: `CCn1cc(C(=O)N2CCN(S(=O)(=O)c3ccc(Br)cc3)CC2)c2ccccc21` 4.31

====

assay: Antiproliferative activity against human 293T cells measured after 24 hrs by MTT assay; assay type: cell-based; settings: 293T (HEK-293T) cells
Can you tell me CC50 at 24 h for the items I'm about to list?
Numbers only, in µM.

CCn1cc(C(=O)N2CCN(S(=O)(=O)c3ccc([N+](=O)[O-])cc3)CC2)c2ccccc21    436
O=C(c1cn(Cc2ccccc2)c2ccccc12)N1CCN(S(=O)(=O)c2ccc(Br)cc2)CC1    326
Cn1cc(C(=O)N2CCN(S(=O)(=O)c3ccc(Br)cc3)CC2)c2ccccc21    295
CCn1cc(C(=O)N2CCN(S(=O)(=O)c3ccc(C)cc3)CC2)c2ccccc21    298
CCCn1cc(C(=O)N2CCN(S(=O)(=O)c3ccc([N+](=O)[O-])cc3)CC2)c2ccccc21    464
Cn1cc(C(=O)N2CCN(S(=O)(=O)c3ccc(Cl)cc3)CC2)c2ccccc21    257
Cc1ccc(S(=O)(=O)N2CCN(C(=O)c3cn(C)c4ccccc34)CC2)cc1    353
CC(C)c1cc(C(C)C)c(S(=O)(=O)N2CCN(C(=O)c3cn(Cc4ccccc4)c4ccccc34)CC2)c(C(C)C)c1    295
CCCn1cc(C(=O)N2CCN(S(=O)(=O)c3ccccc3)CC2)c2ccccc21    485
O=C(c1cn(Cc2ccccc2)c2ccccc12)N1CCN(S(=O)(=O)c2ccc([N+](=O)[O-])cc2)CC1    347

Required: CC50 at 24 h, one value per molecule below.
1. Cn1cc(C(=O)N2CCN(S(=O)(=O)c3ccccc3)CC2)c2ccccc21
2. CCCn1cc(C(=O)N2CCN(S(=O)(=O)c3ccc(Cl)cc3)CC2)c2ccccc21
3. CCn1cc(C(=O)N2CCN(S(=O)(=O)c3ccc(Br)cc3)CC2)c2ccccc21
4. CCCn1cc(C(=O)N2CCN(S(=O)(=O)c3ccc(Br)cc3)CC2)c2ccccc21
5. CCCn1cc(C(=O)N2CCN(S(=O)(=O)c3c(C(C)C)cc(C(C)C)cc3C(C)C)CC2)c2ccccc21
6. CCn1cc(C(=O)N2CCN(S(=O)(=O)c3ccccc3)CC2)c2ccccc21

[314, 537, 354, 463, 311, 366]

====

assay: Antiproliferative activity against human 293T cells measured after 24 hrs by MTT assay; assay type: cell-based; details: 293T (HEK-293T) cells
Checkbox rule: CC50 at 24 h lower than 300 µM = YES; CC50 at 24 h not lower than 300 µM = NO.

Take a look at these entries with their results.
Cc1ccc(S(=O)(=O)N2CCN(C(=O)c3cn(Cc4ccccc4)c4ccccc34)CC2)cc1    NO
CCCn1cc(C(=O)N2CCN(S(=O)(=O)c3ccc(C)cc3)CC2)c2ccccc21    NO
O=C(c1cn(Cc2ccccc2)c2ccccc12)N1CCN(S(=O)(=O)c2ccccc2)CC1    YES
COc1cc2c(c(OC)c1OC)-c1ccc(OC)c(=O)cc1[C@@H](NC(C)=O)CC2    YES
CCn1cc(C(=O)N2CCN(S(=O)(=O)c3c(C(C)C)cc(C(C)C)cc3C(C)C)CC2)c2ccccc21    NO
CC(C)c1cc(C(C)C)c(S(=O)(=O)N2CCN(C(=O)c3cn(C)c4ccccc34)CC2)c(C(C)C)c1    NO

Please check: CC50 at 24 h for `CCn1cc(C(=O)N2CCN(S(=O)(=O)c3ccc(Cl)cc3)CC2)c2ccccc21` , strictly under 300 µM or not? YES

Does this compound meet the criterion CC50 at 24 h < 300 µM? `Cn1cc(C(=O)N2CCN(S(=O)(=O)c3ccc([N+](=O)[O-])cc3)CC2)c2ccccc21` NO

Quick check: CC50 at 24 h of `O=C(c1cn(Cc2ccccc2)c2ccccc12)N1CCN(S(=O)(=O)c2ccc(Cl)cc2)CC1` under 300 µM? NO

====

system: A549; experiment: Antiproliferative activity against human A549 cells measured after 24 hrs by MTT assay; assay type: functional, cell-based; settings: A549, 24 h
Property: pIC50
Answers are plain numbers, as −log10 of the molar value.

Some molecules with known pIC50 results, for comparison:
CCn1cc(C(=O)N2CCN(S(=O)(=O)c3ccc([N+](=O)[O-])cc3)CC2)c2ccccc21    4.20
Cn1cc(C(=O)N2CCN(S(=O)(=O)c3ccc(Br)cc3)CC2)c2ccccc21    5.19
CCCn1cc(C(=O)N2CCN(S(=O)(=O)c3c(C(C)C)cc(C(C)C)cc3C(C)C)CC2)c2ccccc21    4.76

// for each molecule below, give its pIC50
1. Cc1ccc(S(=O)(=O)N2CCN(C(=O)c3cn(C)c4ccccc34)CC2)cc1
2. CC(C)c1cc(C(C)C)c(S(=O)(=O)N2CCN(C(=O)c3cn(C)c4ccccc34)CC2)c(C(C)C)c1
3. CCn1cc(C(=O)N2CCN(S(=O)(=O)c3ccc(C)cc3)CC2)c2ccccc21
4. Cn1cc(C(=O)N2CCN(S(=O)(=O)c3ccc(Cl)cc3)CC2)c2ccccc21
5. Cn1cc(C(=O)N2CCN(S(=O)(=O)c3ccccc3)CC2)c2ccccc21

[5.13, 6.03, 4.61, 4.60, 4.81]

====

Kindly supply the reported IC50 values for the records listed here.
system: HepG2; assay: Antiproliferative activity against human HepG2 cells measured after 24 hrs by MTT assay; type: functional, cell-based; details: HepG2, 24 h

Consider the following illustrative entries.
O=C(c1cn(Cc2ccccc2)c2ccccc12)N1CCN(S(=O)(=O)c2ccc([N+](=O)[O-])cc2)CC1    > 100 µM
CCCn1cc(C(=O)N2CCN(S(=O)(=O)c3ccc([N+](=O)[O-])cc3)CC2)c2ccccc21    > 100 µM

Given `O=C(c1cn(Cc2ccccc2)c2ccccc12)N1CCN(S(=O)(=O)c2ccc(Cl)cc2)CC1` , state its recorded IC50. > 100 µM

====

Exercise: for every item that follows, state its recorded pIC50.
tested on: A549; experiment: Antiproliferative activity against human A549 cells measured after 24 hrs by MTT assay; type: functional, cell-based; conditions: A549, 24 h
Give bare numbers, as −log10 of the molar value.

As a guide, the following entries are already answered.
CCCn1cc(C(=O)N2CCN(S(=O)(=O)c3ccccc3)CC2)c2ccccc21    4.63
CC(C)c1cc(C(C)C)c(S(=O)(=O)N2CCN(C(=O)c3cn(Cc4ccccc4)c4ccccc34)CC2)c(C(C)C)c1    4.97
O=C(c1cn(Cc2ccccc2)c2ccccc12)N1CCN(S(=O)(=O)c2ccc(Cl)cc2)CC1    4.26

For the 3 molecules below, give their pIC50 values.
1. COc1cc2c(c(OC)c1OC)-c1ccc(OC)c(=O)cc1[C@@H](NC(C)=O)CC2
2. CCn1cc(C(=O)N2CCN(S(=O)(=O)c3c(C(C)C)cc(C(C)C)cc3C(C)C)CC2)c2ccccc21
3. CCCn1cc(C(=O)N2CCN(S(=O)(=O)c3ccc(Br)cc3)CC2)c2ccccc21

1: 6.33; 2: 6.23; 3: 4.40
